The reported numbers originate from ChEMBL document CHEMBL4152277.

Target: Amyloid-beta precursor protein (Homo sapiens) (UniProt P05067)
Sequence (P05067 whole entry): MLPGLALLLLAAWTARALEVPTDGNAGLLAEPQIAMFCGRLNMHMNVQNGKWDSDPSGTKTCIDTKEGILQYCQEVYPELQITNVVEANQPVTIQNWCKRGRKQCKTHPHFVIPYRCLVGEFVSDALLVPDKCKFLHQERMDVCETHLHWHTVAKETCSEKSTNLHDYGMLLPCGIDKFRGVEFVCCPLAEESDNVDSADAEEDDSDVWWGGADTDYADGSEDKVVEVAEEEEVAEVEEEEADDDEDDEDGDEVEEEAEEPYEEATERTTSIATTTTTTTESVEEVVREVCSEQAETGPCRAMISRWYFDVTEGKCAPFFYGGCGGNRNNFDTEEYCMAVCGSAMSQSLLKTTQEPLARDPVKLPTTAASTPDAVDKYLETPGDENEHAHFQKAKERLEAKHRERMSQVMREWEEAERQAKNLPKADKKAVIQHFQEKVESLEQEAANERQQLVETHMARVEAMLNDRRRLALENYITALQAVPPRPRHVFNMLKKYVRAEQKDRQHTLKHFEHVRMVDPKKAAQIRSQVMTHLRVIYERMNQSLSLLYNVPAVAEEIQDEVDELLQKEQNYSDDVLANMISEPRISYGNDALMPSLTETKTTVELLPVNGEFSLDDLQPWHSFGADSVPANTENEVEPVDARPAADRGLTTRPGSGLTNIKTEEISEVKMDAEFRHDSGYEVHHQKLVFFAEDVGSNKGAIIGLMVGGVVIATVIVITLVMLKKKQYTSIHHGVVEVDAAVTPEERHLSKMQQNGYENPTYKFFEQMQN
Experiment: Inhibition of amyloid beta (1 to 42) (unknown origin) aggregation assessed as reduction in intensity of fluorescence plateau of aggregation at 10 uM using compound dissolved in DMSO measured after 42 hrs by Thioflavin T fluorescence assay relative to control
Calls of active or inactive are those of the source. No cut-off for these calls is given here.
experimental endpoint: Activity

Worked cases, answers included:
# smiles data, obs value
data = [
    ("COc1ccc(NC(C)=O)cc1C(=O)NNC(=O)[C@H](CCCCN)NC(=O)[C@@H]1CCCN1[C@@H]1CN(C(=O)[C@@H](NC(=O)[C@H](C)NC(=O)OC(C)(C)C)C(C)C)CC[C@H]1NS(=O)(=O)c1ccc(C)cc1", "inactive"),
    ("COc1ccc(NC(C)=O)cc1C(=O)NNC(=O)[C@H](CCCCN)NC(=O)[C@@H]1CCCN1[C@@H]1CN(C(=O)[C@@H](NC(=O)[C@H](C)N)C(C)C)CC[C@H]1NS(=O)(=O)c1ccc(N)cc1", "inactive"),
    ("COc1ccc(NC(C)=O)cc1C(=O)NNC(=O)[C@H](CCCCN)NC(=O)[C@@H]1CCCN1[C@@H]1CN(C(=O)[C@@H](NC(=O)[C@H](C)N)C(C)C)CC[C@H]1NC(=O)OC(C)(C)C", "inactive"),
    ("CSCC[C@H](NC(=O)[C@H](CC(C)C)NC(=O)CN)C(=O)N[C@H](C(=O)NCC(=O)N1CC[C@@H](NS(=O)(=O)c2ccc(C)cc2)[C@H](N2CCC[C@H]2C(=O)N[C@@H](CCCCN)C(=O)N[C@@H](CC(C)C)C(=O)N[C@H](C(=O)N[C@@H](Cc2ccccc2)C(=O)N[C@@H](Cc2ccccc2)C(N)=O)C(C)C)C1)C(C)C", "90%"),
    ("COc1ccc(NC(C)=O)cc1C(=O)NNC(=O)[C@H](CCCCN)NC(=O)[C@@H]1CCCN1[C@@H]1CN(C(=O)[C@@H](NC(=O)[C@H](C)NC(=O)[C@@H](N)C(C)C)C(C)C)CC[C@H]1NS(=O)(=O)c1ccc(C)cc1", "inactive"),
]

Turning to the following compound.
Asked: Reported Activity for Amyloid-beta precursor protein (Homo sapiens) (UniProt P05067), given COC(=O)[C@@H]1CCCN1[C@@H]1CNCC[C@H]1NS(=O)(=O)c1ccc(C)cc1 ?
Given back: inactive
